System: Nucleic Acid
PROTOCOL_NOTES: Binding affinity to human telomeric DNA G-quadruplex assessed as change in melting temperature at 20 uM by FRET assay
Assay type: nucleic-acid assay
VALUE_KIND: ΔTm (°C)

Here's what some known entries look like.
CCN(CC)CC(=O)NCc1cccc2cc3cccc(CNC(=O)CN(CC)CC)c3nc12    2.4
CN(C)CC(=O)NCc1cccc2cc3cccc(CNC(=O)CN(C)C)c3nc12    3.6

1 = O=C(CCN1CCCC1)NCc1cccc2cc3cccc(CNC(=O)CCN4CCCC4)c3nc12
2 = O=C(CN1CCCC1)NCc1cccc2cc3cccc(CNC(=O)CN4CCCC4)c3nc12
Q: Compare the recorded ΔTm of 1 and 2 ; state which is larger. State your choice using its label.
Result: 1
(1: 7.6 °C, 2: 2.6 °C)

###

SYSTEM: Telomerase reverse transcriptase (Homo sapiens)
Sequence (O14746 whole entry): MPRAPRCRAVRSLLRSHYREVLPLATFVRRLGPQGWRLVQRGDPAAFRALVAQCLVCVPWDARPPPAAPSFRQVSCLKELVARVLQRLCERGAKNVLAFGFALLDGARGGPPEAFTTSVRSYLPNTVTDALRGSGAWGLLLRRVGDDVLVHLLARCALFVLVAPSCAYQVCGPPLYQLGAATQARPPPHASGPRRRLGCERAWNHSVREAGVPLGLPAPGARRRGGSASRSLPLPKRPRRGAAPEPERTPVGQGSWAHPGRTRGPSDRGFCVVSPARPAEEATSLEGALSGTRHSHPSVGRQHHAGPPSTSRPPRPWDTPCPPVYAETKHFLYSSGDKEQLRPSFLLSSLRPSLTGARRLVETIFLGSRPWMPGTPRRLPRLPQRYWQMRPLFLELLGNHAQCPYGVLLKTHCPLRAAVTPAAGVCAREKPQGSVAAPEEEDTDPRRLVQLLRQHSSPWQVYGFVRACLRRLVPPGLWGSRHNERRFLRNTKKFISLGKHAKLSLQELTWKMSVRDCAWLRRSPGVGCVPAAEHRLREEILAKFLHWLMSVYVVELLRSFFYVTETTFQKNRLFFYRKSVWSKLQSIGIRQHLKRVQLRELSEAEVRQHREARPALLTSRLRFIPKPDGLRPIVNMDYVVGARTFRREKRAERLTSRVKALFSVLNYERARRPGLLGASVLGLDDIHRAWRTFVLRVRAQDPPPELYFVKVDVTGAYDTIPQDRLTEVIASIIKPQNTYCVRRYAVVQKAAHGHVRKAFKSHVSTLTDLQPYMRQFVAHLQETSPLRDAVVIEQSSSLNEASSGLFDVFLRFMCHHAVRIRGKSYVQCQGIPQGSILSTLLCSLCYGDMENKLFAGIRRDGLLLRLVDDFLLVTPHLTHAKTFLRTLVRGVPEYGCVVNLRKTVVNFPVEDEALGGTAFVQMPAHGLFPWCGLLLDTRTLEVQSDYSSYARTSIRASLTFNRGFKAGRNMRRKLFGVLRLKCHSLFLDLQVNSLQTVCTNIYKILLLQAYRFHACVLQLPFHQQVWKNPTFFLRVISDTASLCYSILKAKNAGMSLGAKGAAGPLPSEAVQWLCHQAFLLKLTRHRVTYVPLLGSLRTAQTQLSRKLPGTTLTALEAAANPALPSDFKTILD
PROTOCOL_NOTES: Inhibition of human telomerase in HT1080 cells by TRAP assay
VALUE_KIND: IC50 (µM)

Here's what some known entries look like.
O=C(CCN1CCCC1)NCc1cccc2cc3cccc(CNC(=O)CCN4CCCC4)c3nc12    6
CN(C)CCCNCc1cccc2cc3cccc(CNCCCN(C)C)c3nc12    0.15
O=C(CCCN1CCCCC1)NCc1cccc2cc3cccc(CNC(=O)CCCN4CCCCC4)c3nc12    12
CN(C)CCNCc1cccc2cc3cccc(CNCCN(C)C)c3nc12    5.6

I = C[N+](C)(C)CC(=O)NCc1cccc2cc3cccc(CNC(=O)C[N+](C)(C)C)c3nc12
II = C[N+]1(CC(=O)NCc2cccc3cc4cccc(CNC(=O)C[N+]5(C)CCCCC5)c4nc23)CCCCC1
Q: // pick min by IC50: I , II State your choice using its label.
Result: I

###

Tested on: Nucleic Acid
PROTOCOL_NOTES: Binding affinity to human telomeric DNA G-quadruplex assessed as change in melting temperature at 20 uM by FRET assay
Type: nucleic-acid assay
VALUE_KIND: ΔTm (°C)

O=C(CCCN1CCCCC1)NCc1cccc2cc3cccc(CNC(=O)CCCN4CCCCC4)c3nc12    10.2
C[N+]1(CC(=O)NCc2cccc3cc4cccc(CNC(=O)C[N+]5(C)CCCCC5)c4nc23)CCCCC1    12.6
NCc1cccc2cc3cccc(CN)c3nc12    7.3

P = C[N+](C)(C)CC(=O)NCc1cccc2cc3cccc(CNC(=O)C[N+](C)(C)C)c3nc12
Q = CN1CCN(CCC(=O)NCc2cccc3cc4cccc(CNC(=O)CCN5CCN(C)CC5)c4nc23)CC1
R = CCN(CC)CCC(=O)NCc1cccc2cc3cccc(CNC(=O)CCN(CC)CC)c3nc12
Q: Write the entries in order, lowest recorded ΔTm first. Put the labels in the requested order and write them down.
Result: Q, R, P
(Q: 4.6 °C, R: 10.7 °C, P: 16.7 °C)

P = C[N+](C)(C)CCC(=O)NCc1cccc2cc3cccc(CNC(=O)CC[N+](C)(C)C)c3nc12
Q = O=C(CCCN1CCCC1)NCc1cccc2cc3cccc(CNC(=O)CCCN4CCCC4)c3nc12
Q: // pick min by ΔTm: P , Q State your choice using its label.
Result: P

###

Test system: Nucleic Acid
PROTOCOL_NOTES: Binding affinity to human telomeric DNA G-quadruplex assessed as change in melting temperature at 20 uM by FRET assay
Assay type: nucleic-acid assay
VALUE_KIND: ΔTm (°C)

Here's what some known entries look like.
C[N+]1(CC(=O)NCc2cccc3cc4cccc(CNC(=O)C[N+]5(C)CCCC5)c4nc23)CCCC1    9.8
CN(C)CCCNCc1cccc2cc3cccc(CNCCCN(C)C)c3nc12    17.7

1 = C[N+]1(CCC(=O)NCc2cccc3cc4cccc(CNC(=O)CC[N+]5(C)CCCC5)c4nc23)CCCC1
2 = CN(C)CCC(=O)NCc1cccc2cc3cccc(CNC(=O)CCN(C)C)c3nc12
3 = c1cnc(NCc2cccc3cc4cccc(CNc5ncccn5)c4nc23)nc1
Q: Write the entries in order, lowest recorded ΔTm first. Put the labels in the requested order and write them down.
Result: 3, 2, 1

###

Tested on: Nucleic Acid
PROTOCOL_NOTES: Binding affinity to human telomeric DNA G-quadruplex assessed as change in melting temperature at 10 uM by FRET assay
Format: nucleic-acid assay
VALUE_KIND: ΔTm (°C)

O=C(CCCN1CCCCC1)NCc1cccc2cc3cccc(CNC(=O)CCCN4CCCCC4)c3nc12    8.1
CN(C)c1ccc(Nc2c3ccc(NC(=O)CCN4CCCC4)cc3nc3cc(NC(=O)CCN4CCCC4)ccc23)cc1    41.1
O=C(CCN1CCCC1)NCc1cccc2cc3cccc(CNC(=O)CCN4CCCC4)c3nc12    4.3

I = C[N+]1(CCC(=O)NCc2cccc3cc4cccc(CNC(=O)CC[N+]5(C)CCCC5)c4nc23)CCCC1
II = CN1CCN(CCC(=O)NCc2cccc3cc4cccc(CNC(=O)CCN5CCN(C)CC5)c4nc23)CC1
Q: // pick min by ΔTm: I , II State your choice using its label.
Result: II

a = C[N+]1(CC(=O)NCc2cccc3cc4cccc(CNC(=O)C[N+]5(C)CCCC5)c4nc23)CCCC1
b = O=C(CCCN1CCCC1)NCc1cccc2cc3cccc(CNC(=O)CCCN4CCCC4)c3nc12
Q: // pick min by ΔTm: a , b State your choice using its label.
Result: a
(a: 7.4 °C, b: 11.9 °C)

###

SYSTEM: Telomerase reverse transcriptase (Homo sapiens)
PROTOCOL_NOTES: Inhibition of human telomerase in HT1080 cells by TRAP assay
VALUE_KIND: IC50 (µM)

Here's what some known entries look like.
C[N+](C)(C)CCC(=O)NCc1cccc2cc3cccc(CNC(=O)CC[N+](C)(C)C)c3nc12    3
CN(C)c1ccc(Nc2c3ccc(NC(=O)CCN4CCCC4)cc3nc3cc(NC(=O)CCN4CCCC4)ccc23)cc1    0.09

1 = C[N+]1(CCC(=O)NCc2cccc3cc4cccc(CNC(=O)CC[N+]5(C)CCCC5)c4nc23)CCCC1
2 = O=C(CCCN1CCCC1)NCc1cccc2cc3cccc(CNC(=O)CCCN4CCCC4)c3nc12
3 = C[N+]1(CC(=O)NCc2cccc3cc4cccc(CNC(=O)C[N+]5(C)CCCC5)c4nc23)CCCC1
Q: Hello, I need these entries ordered by IC50, highest reading first. Thanks! Put the labels in the requested order and write them down.
Result: 3, 2, 1

###

Tested on: Nucleic Acid
PROTOCOL_NOTES: Binding affinity to human telomeric DNA G-quadruplex assessed as change in melting temperature at 1 uM by FRET assay
Type: nucleic-acid assay
VALUE_KIND: ΔTm (°C)

O=C(CCN1CCCC1)NCc1cccc2cc3cccc(CNC(=O)CCN4CCCC4)c3nc12    0

a = C[N+]1(CCC(=O)NCc2cccc3cc4cccc(CNC(=O)CC[N+]5(C)CCCC5)c4nc23)CCCC1
b = CN1CCN(CCC(=O)NCc2cccc3cc4cccc(CNC(=O)CCN5CCN(C)CC5)c4nc23)CC1
c = C[N+]1(CC(=O)NCc2cccc3cc4cccc(CNC(=O)C[N+]5(C)CCCC5)c4nc23)CCCC1
Q: Write the entries in order, lowest recorded ΔTm first. Put the labels in the requested order and write them down.
Result: b, c, a

a = CCN(CC)CCC(=O)NCc1cccc2cc3cccc(CNC(=O)CCN(CC)CC)c3nc12
b = NCc1cccc2cc3cccc(CN)c3nc12
Q: // pick min by ΔTm: a , b State your choice using its label.
Result: b
(b: 0 °C, a: 2.6 °C)

1 = C[N+]1(CC(=O)NCc2cccc3cc4cccc(CNC(=O)C[N+]5(C)CCCCC5)c4nc23)CCCCC1
2 = O=C(CN1CCCCC1)NCc1cccc2cc3cccc(CNC(=O)CN4CCCCC4)c3nc12
Q: // pick min by ΔTm: 1 , 2 State your choice using its label.
Result: 2

###

System: Nucleic Acid
PROTOCOL_NOTES: Binding affinity to human telomeric DNA G-quadruplex assessed as change in melting temperature at 20 uM by FRET assay
Type: nucleic-acid assay
VALUE_KIND: ΔTm (°C)

O=C(CCN1CCCCC1)NCc1cccc2cc3cccc(CNC(=O)CCN4CCCCC4)c3nc12    10.4

a = CN(C)CCNCc1cccc2cc3cccc(CNCCN(C)C)c3nc12
b = c1ccc(CNCc2cccc3cc4cccc(CNCc5ccccc5)c4nc23)cc1
Q: // pick min by ΔTm: a , b State your choice using its label.
Result: b

###

Test system: Nucleic Acid
PROTOCOL_NOTES: Binding affinity to human telomeric DNA G-quadruplex assessed as change in melting temperature at 10 uM by FRET assay
Format: nucleic-acid assay
VALUE_KIND: ΔTm (°C)

O=C(CCN1CCCCC1)NCc1cccc2cc3cccc(CNC(=O)CCN4CCCCC4)c3nc12    7.3
CCN(CC)CCC(=O)NCc1cccc2cc3cccc(CNC(=O)CCN(CC)CC)c3nc12    9.1
C[N+](C)(C)CCC(=O)NCc1cccc2cc3cccc(CNC(=O)CC[N+](C)(C)C)c3nc12    8.2
C[N+]1(CC(=O)NCc2cccc3cc4cccc(CNC(=O)C[N+]5(C)CCCCC5)c4nc23)CCCCC1    8.8
